A collection of compounds and their measured pKi
# EXPERIMENTAL DETAILS: Inhibition of Enterococcus faecium AAC(6')Ii
Hey, just a heads up that pKi is the negative log base 10 of the concentration in molar.

>  <SMILES CODE>
CC(C)(COP(=O)(O)OP(=O)(O)OC[C@H]1O[C@@H](n2cnc3c(N)ncnc32)[C@H](O)[C@@H]1OP(=O)(O)O)[C@@H](O)C(=O)NCCC(=O)NCCSCC(=O)NC[C@H]1O[C@H](O[C@H]2[C@H](O)[C@@H](O[C@H]3O[C@H](CO)[C@@H](O)[C@H](N)[C@H]3O)[C@H](N)C[C@@H]2N)[C@H](O)[C@@H](O)[C@@H]1O

>  <pKi>
6.96

$$$$
>  <SMILES CODE>
CC(C)(COP(=O)(O)OP(=O)(O)OC[C@H]1O[C@@H](n2cnc3c(N)ncnc32)[C@H](O)[C@@H]1OP(=O)(O)O)[C@@H](O)C(=O)NCCC(=O)NCCSCCC(=O)NC[C@H]1O[C@H](O[C@H]2[C@H](O)[C@@H](O)[C@H](N)C[C@@H]2N)[C@H](N)[C@@H](O)[C@@H]1O

>  <pKi>
7.37

$$$$

Now look at this entry.
The compound identified as `CC(C)(COP(=O)(O)OP(=O)(O)OC[C@H]1O[C@@H](n2cnc3c(N)ncnc32)[C@H](O)[C@@H]1OP(=O)(O)O)[C@@H](O)C(=O)NCCC(=O)NCCSCCCCC(=O)NC[C@H]1O[C@H](O[C@H]2[C@H](O)[C@@H](O)[C@H](N)C[C@@H]2N)[C@H](N)[C@@H](O)[C@@H]1O` registered its pKi at 5.10

* * *

# EXPERIMENTAL DETAILS: Inhibition of Enterococcus faecium AAC(6')Ii
PARAMETER: pKi
Hey, just a heads up that pKi is the negative log base 10 of the concentration in molar.

Sample records with pKi:
>  <SMILES CODE>
CC(C)(COP(=O)(O)OP(=O)(O)OC[C@H]1O[C@@H](n2cnc3c(N)ncnc32)[C@H](O)[C@@H]1OP(=O)(O)O)[C@@H](O)C(=O)NCCC(=O)NCCSCCCC(=O)NC[C@H]1O[C@H](O[C@H]2[C@H](O)[C@@H](O)[C@H](N)C[C@@H]2N)[C@H](N)[C@@H](O)[C@@H]1O

>  <VALUE REPORTED>
6.79

$$$$
>  <SMILES CODE>
CC(C)(COP(=O)(O)OP(=O)(O)OC[C@H]1O[C@@H](n2cnc3c(N)ncnc32)[C@H](O)[C@@H]1OP(=O)(O)O)[C@@H](O)C(=O)NCCC(=O)NCCSCC(=O)NC[C@H]1O[C@H](O[C@H]2[C@H](O)[C@@H](O)[C@H](N)C[C@@H]2N)[C@H](N)[C@@H](O)[C@@H]1O

>  <VALUE REPORTED>
7.12

$$$$

Now look at this entry.
The molecule identified as `CC(C)(COP(=O)(O)OP(=O)(O)OC[C@H]1O[C@@H](n2cnc3c(N)ncnc32)[C@H](O)[C@@H]1OP(=O)(O)O)[C@@H](O)C(=O)NCCC(=O)NCCSCC(=O)NC[C@H]1O[C@H](O[C@H]2[C@H](O)[C@@H](O[C@H]3O[C@H](CO)[C@@H](O)[C@H](O)[C@H]3O[C@@H]3O[C@H](CO)[C@@H](O)[C@H]3O)[C@H](N)C[C@@H]2N)[C@H](N)[C@@H](O)[C@@H]1O` registered its pKi at 6.92
